These entries and their values trace back to patent US20230340011A1.

- tested_system: SREBP-2 (Homo sapiens (Human))
- assay_details: In vitro assay SREBP-2: PathHunter U2OS SREBP-2 Nuclear Translocation Cell Line, U18666A-stimulated
- Assay type: cell-based
- settings: PathHunter U2OS SREBP-2 nuclear translocation cells, U18666A 10 μM, overnight (16 hours)
We begin with a simple list: items and their reported IC50.

>>> result("CC(=N)N1CCN(C(=O)CC[C@@H](C)[C@H]2CC[C@H]3[C@@H]4CC=C5C[C@@H](O)CC[C@]5(C)[C@H]4CC[C@]23C)CC1 [Example 245]")
"250 to 1000 nM"

*Q* // fetch IC50 for C[C@H](CCC(=O)N1CC[C@@H](Oc2ccncc2)[C@@H](C)C1)[C@H]1CC[C@H]2[C@@H]3CC=C4C[C@@H](O)CC[C@]4(C)[C@H]3CC[C@]12C [Example 572] ; system: SREBP-2 (Homo sapiens (Human))
*A* < 250 nM

*Q* // fetch IC50 for C[C@H](CCC(=O)N1CCC(OC(=O)N(C)C)CC1)[C@H]1CC[C@H]2[C@@H]3CC=C4C[C@@H](O)CC[C@]4(C)[C@H]3CC[C@]12C [Example 286] ; system: SREBP-2 (Homo sapiens (Human))
*A* < 250 nM

*Q* // fetch IC50 for Cc1ncsc1N1CCN(C(=O)CC[C@@H](C)[C@H]2CC[C@H]3[C@@H]4CC=C5C[C@@H](O)CC[C@]5(C)[C@H]4CC[C@]23C)CC1 [Example 607] ; system: SREBP-2 (Homo sapiens (Human))
*A* < 250 nM

*Q* // fetch IC50 for C[C@H](CCC(=O)N1CCN(c2ncncc2C(F)(F)F)CC1)[C@H]1CC[C@H]2[C@@H]3CC=C4C[C@@H](O)CC[C@]4(C)[C@H]3CC[C@]12C [Example 619] ; system: SREBP-2 (Homo sapiens (Human))
*A* < 250 nM

*Q* // fetch IC50 for C[C@H](CCc1nccs1)[C@H]1CC[C@H]2[C@@H]3CC=C4C[C@@H](O)CC[C@]4(C)[C@H]3CC[C@]12C [Example 172] ; system: SREBP-2 (Homo sapiens (Human))
*A* 250 to 1000 nM

*Q* // fetch IC50 for C[C@H](C(=O)NCc1ccncc1)[C@H]1CC[C@H]2[C@@H]3CC=C4C[C@@H](O)CC[C@]4(C)[C@H]3CC[C@]12C [Example 599] ; system: SREBP-2 (Homo sapiens (Human))
*A* 1000 to 10000 nM

*Q* // fetch IC50 for C[C@H](CCC(=O)N1OC(C)(C)[C@H]2COC[C@H]21)[C@H]1CC[C@H]2[C@@H]3CC=C4C[C@@H](O)CC[C@]4(C)[C@H]3CC[C@]12C [Example 49] ; system: SREBP-2 (Homo sapiens (Human))
*A* 250 to 1000 nM

*Q* // fetch IC50 for COC(=O)N1CCN(C(=O)O[C@@H](C)[C@H]2CC[C@H]3[C@@H]4CC=C5C[C@@H](O)CC[C@]5(C)[C@H]4CC[C@]23C)CC1 [Example 237] ; system: SREBP-2 (Homo sapiens (Human))
*A* < 250 nM

*Q* // fetch IC50 for CNC(=O)c1ccc(OC[C@@H](C)[C@H]2CC[C@H]3[C@@H]4CC=C5C[C@@H](O)CC[C@]5(C)[C@H]4CC[C@]23C)nc1 [Example 255] ; system: SREBP-2 (Homo sapiens (Human))
*A* < 250 nM

*Q* // fetch IC50 for C[C@H](CCC(=O)N1CCS(=O)(=O)[C@H](C)C1)[C@H]1CC[C@H]2[C@@H]3CC=C4C[C@@H](O)CC[C@]4(C)[C@H]3CC[C@]12C [Example 356] ; system: SREBP-2 (Homo sapiens (Human))
*A* < 250 nM
